Measured composite z-score values are reported for all entries that follow.
target: Alpha-bungarotoxin (Bungarus multicinctus) (UniProt P60615); assay: alpha-bungarotoxin binders on microarray, profiling panel, artefact control for SMM control protein annotation, biochemical, small-molecule microarray, Alexa647 label, 635/667 nm fluorescence (AID 1117); settings: alpha-BTX-A647 binding fluorescence, higher = more signal
Sequence (P60615 whole entry, looked up): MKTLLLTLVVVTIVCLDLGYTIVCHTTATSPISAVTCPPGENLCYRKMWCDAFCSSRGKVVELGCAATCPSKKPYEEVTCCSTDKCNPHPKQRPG
Lab note: record just the number, no unit beside it.

COCCOC(=O)N1C(=O)[C@@]2(c3cc(C#Cc4ccc(OC)cc4)ccc31)[C@H](C(N)=O)[C@H]1C(=O)O[C@H](c3ccccc3)[C@H](c3ccccc3)N1[C@@H]2c1ccccc1OCCO; 2.97
C=CC[C@@]1(C(=O)NCc2ccccc2)N=C(c2ccc(OCCCO)cc2)O[C@@H]1c1ccccc1N=[N+]=[N-]; 1.82
C=CCNC(=O)[C@@H]1[C@H]2C(=O)O[C@H](c3ccccc3)[C@H](c3ccccc3)N2[C@H](c2ccc(OCCO)cc2)[C@@]12C(=O)Nc1ccc(C#Cc3ccc(OC)cc3)cc12; 2.88

# return recorded composite z-score for input O=C1NC(=O)C2C1C=CC(C(O)Cc1ccccc1)N2Nc1ccc(Cl)cc1Cl (stereo unspecified)
1.57

Consider the compound `COCCOC(=O)N1C(=O)[C@@]2(c3cc(C#CCCO)ccc31)[C@H](c1ccc(OCCO)cc1)N1[C@H](c3ccccc3)[C@H](c3ccccc3)OC(=O)[C@H]1[C@@H]2C(=O)N1CCN(c2ncccn2)CC1` . State its measured composite z-score.
0.582

# return recorded composite z-score for entry `CC(C)N1C(=O)c2ccccc2[C@](C)(C(=O)NCc2ccccc2)[C@@H]1c1ccc(CO)cc1`
-0.491

For the compound `Cc1ccc(S[C@]2(C(=O)NCC(F)(F)F)CC(=O)N(C(C)C)[C@@H]2c2ccc(CO)cc2I)cc1` , give its reported composite z-score.
-0.472

Please give the documented composite z-score of CN1C(=O)C2C=CC(C(O)C3CCCCC3)N(Nc3ccc([N+](=O)[O-])cc3[N+](=O)[O-])C2C1=O (stereo unspecified)
1.34

// fetch composite z-score given entry `O=C1O[C@@H](c2ccccc2)[C@@H](c2ccccc2)N2[C@@H](c3ccc(OCCO)cc3)[C@]3(C(=O)Nc4ccccc43)[C@@H](C(=O)NC[C@H](O)c3ccccc3)[C@H]12`
0.362

Read off the recorded composite z-score for `CCOC(=O)C[C@H]1[C@H](OC(=O)c2ccc(C(=O)c3ccccc3)cc2)[C@@H](NC(=O)c2ccc(-c3ccccc3)cc2)c2cc(OCCCO)ccc2N1C(=O)c1ccccc1`
0.706

Output measured composite z-score for this item: `COc1ccc(C#Cc2ccc3c(c2)[C@]2(C(=O)N3)[C@H](c3ccccc3OCCO)N3[C@H](c4ccccc4)[C@H](c4ccccc4)OC(=O)[C@H]3[C@@H]2C(=O)O)cc1`
1.67

Look up and state reported composite z-score for CN1C(=O)C2C=CC(C(O)c3ccc(I)cc3)N(N3CCCCC3)C2C1=O (stereo unspecified)
1.22

Return the recorded composite z-score value; entry: CCOC(=O)[C@H]1CC=C2CC1C(=O)N1CCC[C@@H]1[C@@H]2O[Si](C)(C)C(C)(C)C (stereo partly specified)
-1.15

Could you please provide reported composite z-score for `NCCCCCNC(=O)[C@@H]1C[C@@H]2C(=O)NCC(=O)N2[C@@H]1c1ccc(O)cc1` ? Thanks!
1.15

Write down composite z-score measured for item `C=CCOC(=O)[C@H]1[C@@H]2C(=O)O[C@@H](c3ccccc3)[C@@H](c3ccccc3)N2[C@@H](c2ccc(OCCOC(=O)[C@@H]3C[C@@H]4C(=O)N[C@@H](CCCCN(C)C)C(=O)N4[C@@H]3c3ccc(O)cc3)cc2)[C@]12C(=O)Nc1ccc(I)cc12`
1.32

Write down composite z-score measured for item `CN(C)CCCNC(=O)[C@@]1(c2ccc([N+](=O)[O-])cc2)CC(=O)N(C2CCCCC2)[C@@H]1c1ccc(CO)cc1I`
1.03

Find the measured composite z-score of `C=CCOC(=O)[C@H]1[C@@H]2C(=O)O[C@@H](c3ccccc3)[C@@H](c3ccccc3)N2[C@@H](c2ccc(OCCOC(=O)[C@@H]3C[C@@H]4C(=O)N5CCC[C@H]5C(=O)N4[C@@H]3c3cccc(OCCO)c3)cc2)[C@]12C(=O)Nc1ccccc12` and report it.
1.34

Identify composite z-score associated with the compound `CCOC(=O)[C@H]1C/C=C/C[C@H](C(=O)OCC)C(=O)O[C@H]2[C@@H](OC)O[C@H](CO)[C@@H](OC(=O)Nc3ccc(C#N)cc3)[C@@H]2OC1=O`
-0.253

Using the record for `CCCCc1cn(C[C@H](Cc2ccccc2)NC(=O)N[C@H](CO)CCc2oc(C(C)=O)c(C(=O)OC)c2C(=O)OC)nn1` , state its measured composite z-score.
0.463

Please supply the value of reported composite z-score for the item [N-]=[N+]=Nc1ccccc1C[C@]1(C(=O)NCC(O)CO)N=C(c2ccc(OCCCO)cc2)O[C@H]1c1ccccc1N=[N+]=[N-] (stereo partly specified)
0.15
